# system.name: glutathione-S-transferase (GST) tagged LXRbeta LBD (ligand binding domain) (Homo sapiens, UniProt P55055)
# Construct: purchased Invitrogen pv4658.pps
# Sequence (P55055 222-460 limits assumed): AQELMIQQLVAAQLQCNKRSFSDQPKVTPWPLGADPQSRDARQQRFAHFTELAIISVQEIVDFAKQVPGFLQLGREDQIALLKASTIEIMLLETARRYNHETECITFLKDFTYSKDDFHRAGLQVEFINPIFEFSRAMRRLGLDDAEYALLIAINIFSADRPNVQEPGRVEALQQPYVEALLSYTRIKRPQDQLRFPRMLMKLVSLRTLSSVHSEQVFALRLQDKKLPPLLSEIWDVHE
# assay.procedure: LanthaScreen TR-FRET Liver X Receptor Coactivator Assay, co-activator recruitment to LXRbeta LBD
# Format: biochemical
# applied.conditions: potency (Inflection Point, IP), co-activator recruitment to LXRbeta LBD, in relation to T0901317; read-out: LXR beta IP
pEC50: −log10 of the molar value.
reported.metric: pEC50

Recorded pEC50, per entry:
[
  {
    "molecule": "CCOc1cccc([C@@](O)(C(=O)N2CCC(C)(CC3CCN(c4ccc(C(=O)N(C)C)c(Cl)n4)CC3)CC2)C(F)(F)F)c1",
    "pEC50": 8.00
  },
  {
    "molecule": "CN(C)C(=O)c1ccc(N2CCC(CC3(C)CCN(C(=O)[C@](O)(c4cc(Cl)cc(Cl)c4)C(F)(F)F)CC3)CC2)cc1Cl",
    "pEC50": 8.30
  },
  {
    "molecule": "CN(C)C(=O)c1ccc(N2CCC(CC3CCN(C(=O)[C@](O)(c4csc5ccccc45)C(F)(F)F)CC3)CC2)cc1Cl (stereo in doubt)",
    "pEC50": 7.96
  },
  {
    "molecule": "CN(C)C(=O)c1ccc(N2CCC(CC3CCN(C(=O)[C@](O)(c4cccc(N(C)C)c4)C(F)(F)F)CC3)CC2)cc1Cl",
    "pEC50": 8.10
  },
  {
    "molecule": "CN(C)C(=O)c1ccc(N2CCC(CC3CCN(C(=O)C(O)(c4ccc(C(F)(F)F)cc4)C(F)(F)F)CC3)CC2)cc1Cl (stereo not shown)",
    "pEC50": 6.22
  }
]

[P] COc1cc(F)cc([C@@](O)(C(=O)N2CCC(CC3CCN(c4ccc(C(=O)N(C)C)c(C)c4)CC3)CC2)C(F)(F)F)c1
[Q] CN(C)C(=O)c1ccc(N2CCC(OC3CCN(C(=O)C4(c5ccccc5)CCC4)CC3)CC2)cc1Cl
Data request: Hey, between P and Q which has a smaller measured pEC50? Respond with the label that goes with your answer.
Data returned: Q
(Q: 6.43, P: 7.96)

[1] CN(C)C(=O)c1ccc(N2CCC(CC3CCN(C(=O)C(O)(c4cccnc4)C(F)(F)F)CC3)CC2)nc1Cl (stereo not shown)
[2] COc1cccc([C@@](N)(C(=O)N2CCC(CC3CCN(c4ccc(C(=O)N(C)C)c(Cl)c4)CC3)CC2)C(F)(F)F)c1
Data request: Could you kindly indicate whether 1 or 2 has the higher pEC50 value? Respond with the label that goes with your answer.
Data returned: 1

[P] COc1cccc([C@@](O)(C(=O)N2CCC(CN3CCN(c4ccc(C(=O)N(C)C)c(Cl)c4)CC3)CC2)C(F)(F)F)c1
[Q] COc1cccc([C@@](O)(C(=O)N2CCC(C)(CC3CCN(c4ccc(C(=O)N(C)C)c(Cl)n4)CC3)CC2)C(F)(F)F)c1
[R] CN(Cc1cncs1)C(=O)c1ccc(N2CCC(CC3CCN(C(=O)[C@](O)(c4ccccc4)C(F)(F)F)CC3)CC2)cc1Cl
Data request: Arrange the 3 molecules from largest to smallest pEC50. Could you list the labels in the order requested?
Data returned: Q, R, P
(Q: 8.30, R: 7.02, P: 6.72)

###

# system.name: glutathione-S-transferase (GST) tagged LXRbeta LBD (ligand binding domain) (Homo sapiens)
# Construct: purchased Invitrogen pv4658.pps
# assay.procedure: LanthaScreen TR-FRET Liver X Receptor Coactivator Assay, co-activator recruitment to LXRbeta LBD
# Type: biochemical
# applied.conditions: efficacy at max dose, in relation to reference dual agonist T0901317; read-out: LXR beta Activity @ max dose (%)
reported.metric: Emax (%)

Recorded Emax, per entry:
[
  {
    "compound": "Cc1ccccc1C1(C(=O)N2CCC(CC3CCN(c4ccc(C(=O)N(C)C)c(Cl)n4)CC3)CC2)CCC1 [Example 7-56]",
    "system.name": "glutathione-S-transferase (GST) tagged LXRbeta LBD (ligand binding domain) (Homo sapiens)",
    "unit.tag": "%",
    "Emax": 114
  },
  {
    "compound": "CCc1cccc([C@@](O)(C(=O)N2CCC(CC3CCN(c4ccc(C(=O)NC)c(Cl)n4)CC3)CC2)C(F)(F)F)c1 [Example 7-148]",
    "system.name": "glutathione-S-transferase (GST) tagged LXRbeta LBD (ligand binding domain) (Homo sapiens)",
    "unit.tag": "%",
    "Emax": 65
  },
  {
    "compound": "Cc1cccc(C(O)(C(=O)N2CCC(CC3CCN(c4ccc(C(=O)N(C)C)c(Cl)n4)CC3)CC2)C(F)(F)F)c1 (stereo not shown) [Example 7-55]",
    "system.name": "glutathione-S-transferase (GST) tagged LXRbeta LBD (ligand binding domain) (Homo sapiens)",
    "unit.tag": "%",
    "Emax": 59
  },
  {
    "compound": "COc1cc(Cl)cc([C@@](O)(C(=O)N2CCC(CC3CCN(c4ccc(C(=O)N(C)C)cc4)CC3)CC2)C(F)(F)F)c1 [Example 2-138]",
    "system.name": "glutathione-S-transferase (GST) tagged LXRbeta LBD (ligand binding domain) (Homo sapiens)",
    "unit.tag": "%",
    "Emax": 35
  }
]

[I] CN(C)C(=O)c1ccc(N2CCC(CC3CCN(C(=O)[C@](O)(c4ccccc4)C(F)(F)C(F)(F)F)CC3)CC2)nc1Cl [Example 7-60]
[II] COCCN(C)C(=O)c1ccc(N2CCC(CC3CCN(C(=O)[C@](O)(c4ccccc4)C(F)(F)F)CC3)CC2)cc1Cl [Example 4-9]
[III] CCOc1cccc([C@@](O)(C(=O)N2CCC(CC3CCN(c4ccc(C(=O)N(C)C)c(Cl)c4)CC3)CC2)C(F)F)c1 [Example 2-108]
Data request: List the 3 entries from lowest Emax to highest Emax value. Could you list the labels in the order requested?
Data returned: III, II, I
(III: 10%, II: 69%, I: 153%)

###

# system.name: glutathione-S-transferase (GST) tagged LXRalpha LBD (ligand binding domain) (Homo sapiens)
# Construct: purchased Invitrogen pv4655
# Sequence (Q13133 209-447 limits assumed): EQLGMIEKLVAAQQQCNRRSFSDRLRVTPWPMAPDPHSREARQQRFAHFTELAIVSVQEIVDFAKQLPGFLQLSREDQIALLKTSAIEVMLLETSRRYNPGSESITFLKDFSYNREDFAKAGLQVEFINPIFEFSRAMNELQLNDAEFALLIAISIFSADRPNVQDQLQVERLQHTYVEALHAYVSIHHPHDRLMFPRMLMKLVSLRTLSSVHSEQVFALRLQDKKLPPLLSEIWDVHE
# assay.procedure: LanthaScreen TR-FRET Liver X Receptor Coactivator Assay, co-activator recruitment to LXRalpha LBD
# Type: biochemical
# applied.conditions: potency (Inflection Point, IP), co-activator recruitment to LXRalpha LBD, in relation to T0901317; read-out: LXR alpha IP
pEC50: −log10 of the molar value.
reported.metric: pEC50

[
  {
    "compound": "CNC(=O)c1ccc(N2CCC(CC3CCN(C(=O)[C@](O)(c4cc(F)cc(OC)c4)C(F)(F)F)CC3)CC2)cc1Cl",
    "reported.metric": "pEC50",
    "endpoint.result": 6.61
  },
  {
    "compound": "CN(C)C(=O)c1ccc(N2CCC(CC3CCN(C(=O)C(O)(c4cccc(C(F)(F)F)c4)C(F)(F)F)CC3)CC2)nc1Cl (stereo not shown)",
    "reported.metric": "pEC50",
    "endpoint.result": 6.45
  },
  {
    "compound": "NC(=O)c1ccc(N2CCC(CC3CCN(C(=O)[C@](O)(c4cccc(Cl)c4)C(F)(F)F)CC3)CC2)cc1Cl",
    "reported.metric": "pEC50",
    "endpoint.result": 7.49
  },
  {
    "compound": "COc1nc(N2CCC(CC3CCN(C(=O)[C@](O)(c4ccccc4)C(F)(F)F)CC3)CC2)ccc1C(=O)N(C)C",
    "reported.metric": "pEC50",
    "endpoint.result": 6.35
  },
  {
    "compound": "CN(C)C(=O)c1ccc(N2CCC(CC3CCN(C(=O)[C@@](O)(c4ccccc4)C(F)(F)F)CC3)CC2)nc1Cl",
    "reported.metric": "pEC50",
    "endpoint.result": 5.87
  }
]

[a] Cc1cc(N2CCC(CC3CCN(C(=O)[C@](O)(c4cccc(C(F)(F)F)c4)C(F)(F)F)CC3)CC2)ccc1C(=O)N(C)C
[b] CN(C)C(=O)c1ccc(N2CCC(CC3CCN(C(=O)[C@](O)(c4cccc(Br)c4)C(F)(F)F)CC3)CC2)cc1Cl
Data request: Could you kindly indicate whether a or b has the higher pEC50 value? Respond with the label that goes with your answer.
Data returned: b
